Value source: ChEMBL document CHEMBL1146493

system: Agrobacterium tumefaciens; experiment: Inhibition of virH gene expression in Agrobacterium tumefaciens A348 overexpressing pSM219 virH::lacZ assessed as beta-galactosidase activity at 100 uM after 18 hrs; assay type: functional, organism-based
Active and inactive are the calls of the source. The rule behind the calls is not given here.
property-measured: Activity

Below, 5 compounds whose answers are already recorded.
line-notation: COc1cc(C(C)=O)cc(OC)c1O[C@H]1O[C@H](CO)[C@@H](O)[C@H](O)[C@H]1O
Activity: Active
--
line-notation: CC(=O)c1ccc(O[C@@H]2OC[C@@H](O)[C@H](O)[C@H]2O)cc1
Activity: Active
--
line-notation: COc1cc(C(C)=O)ccc1O[C@@H]1OC[C@@H](O)[C@H](O)[C@H]1O
Activity: Active
--
line-notation: COc1cc(C(C)=O)cc(OC)c1O[C@@H]1O[C@H](CO)[C@@H](O)[C@H](O)[C@H]1O
Activity: Active
--
line-notation: COc1cc(/C=C/C(C)=O)cc(OC)c1O[C@@H]1O[C@H](CO)[C@@H](O)[C@H](O)[C@H]1O
Activity: Active

Kindly consider the entry below.
Give recorded Activity. COc1cc(C(C)=O)cc(OC)c1O[C@@H]1OC[C@@H](O)[C@H](O)[C@H]1O
Active
